B1: LINE1-mini (parent)
chain: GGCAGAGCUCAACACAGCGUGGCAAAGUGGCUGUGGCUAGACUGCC

Variants of: B1
Experiment notes: self-cleavage, relative activity (ratio to wild type); higher = more cleavage; in vitro, sequencing; the parent is a self-cleaving ribozyme
// thresholds for self-cleavage classes: low bin (below 0.07), mid bin (0.07 to below 0.2), high bin (0.2 or more)

Using the reported self-cleavage, which band applies to GGCAGAGCUCAACCCAGCGUGGCAAAGUGGCUGUGUCUAGACUGCC [A14C G36U] ? mid bin

Class label required: GGCAGAGCUCAACACAGAAUGGCAAAGUGGCUGUGGCUAGACUGCC [C18A G19A] high bin

Kindly state the category for this variant: GGCAGAGCUCAACACAGCGUGGGAAAGUGGCUUUGGCUAGACUGCC [C23G G33U] mid bin

Given GGCAGAGCGCAACACAGCGUGGCAAAGUGGCUGUGGCUAGACUGGC [U9G C45G] , name the class its self-cleavage places it in. high bin

Could you tell me which band GGGAGUGCUCAACACAGCGUGGCAAAGUGGCUGUGGCUAGACUGCC [C3G A6U] belongs to? high bin

Classify this variant: GGCUGAGCUCAACACAGCGUGGCAAAGUGGCUGUGGCUAGACUUCC [A4U G44U] high bin

Which band does GGCAGAGCUCAACACAGCGUGGCAAAGUGGCUGUGGCUUGAAUGCC [A39U C42A] fall in? mid bin

Would you mind sorting GGCAGAGCUCAAUACAGCGUGGCAAAGUGGCUGUGGCUAAACUGCC [C13U G40A] into the appropriate category? mid bin

Entry GGCAGAGCUCAACACAGCGUGGCAAAGUGGCUGUCGCUAGACUGCU [G35C C46U] belongs to which category? low bin

Kindly identify the class of GGCAGAGCUCCACACAGCGUGCCAAAGUGGCUGUGGCUAGACUGCC [A11C G22C] . low bin

Sort GGAAGAGCUCAACACAGCGUGGCAAAGUGGCUGUGUCUAGACUGCC [C3A G36U] into one of the categories. high bin

Form: Item = GGCAGAGCUCAACACAGCGUGGCAAGGUGGCAGUGGCUAGACUGCC [A26G U32A] ; Class = ? mid bin

Sort GGCAGAGCUCAACACAGCGUGGCAAAGUAGCUGUGGCUCGACUGCC [G29A A39C] into one of the categories. high bin

Which class holds GGCAGAGCUCUACACACCGUGGCAAAGUGGCUGUGGCUAGACUGCC [A11U G17C] ? mid bin

Form: Item = GGCAGAGCUCAUCACAGCGUGGCAAAGUGGCUGUGGCUAGACGGCC [A12U U43G] ; Class = ? mid bin

Where would GUCAGAGCUCAACACAGCGUGGCAAAGUUGCUGUGGCUAGACUGCC [G2U G29U] land among the classes by reported self-cleavage? mid bin

Which class does GGCAGAGCUCAACACAGCGUGCCAAAGUGGCUGUGGCUAGACGGCC [G22C U43G] fall in? low bin

Categorize the following entry: GGCAUAGAUCAACACAGCGUGGCAAAGUGGCUGUGGCUAGACUGCC [G5U C8A] high bin

Category of GGCAGAGCUCAACACAGCGUGGCAAACUGGCUGUGGCGAGACUGCC [G27C U38G] : low bin

Hi, small favor: classify GGCAGAGCUUAACACAGCGUGGCAAAGUGGCUGUGGCUAUACUGCC [C10U G40U] by its self-cleavage when you get a moment. low bin

Into which category would you place GCCAGAGCUCAACACAGCGUGGCAAAGUGGGUGUGGCUAGACUGCC [G2C C31G] ? low bin

Determine which band this variant sits in: GACAGAGCUCAACAGAGCGUGGCAAAGUGGCUGUGGCUAGACUGCC [G2A C15G] low bin

Into which category would you place AGCAGAGCUCAACACAGCGUGGCAAAGUGGCUGUGGCUAGUCUGCC [G1A A41U] ? high bin

Into which category would you place GGCAGAGCUCAACACAGUGUGGCAUAGUGGCUGUGGCUAGACUGCC [C18U A25U] ? high bin

Which class holds GGCAGUGCUCAACACAGCGUGGCAAAGUGGCUGUGGCUACACUGCC [A6U G40C] ? mid bin

Returns: class label. Input: GGCACAGCUCAACACAGCGUGGCAAAGCGGCUGUGGCUAGACUGCC [G5C U28C] low bin
